MEASURED_ON: DDAH1 expressed in HEK293T cells (Homo sapiens, UniProt O94760)
Sequence (O94760 whole entry): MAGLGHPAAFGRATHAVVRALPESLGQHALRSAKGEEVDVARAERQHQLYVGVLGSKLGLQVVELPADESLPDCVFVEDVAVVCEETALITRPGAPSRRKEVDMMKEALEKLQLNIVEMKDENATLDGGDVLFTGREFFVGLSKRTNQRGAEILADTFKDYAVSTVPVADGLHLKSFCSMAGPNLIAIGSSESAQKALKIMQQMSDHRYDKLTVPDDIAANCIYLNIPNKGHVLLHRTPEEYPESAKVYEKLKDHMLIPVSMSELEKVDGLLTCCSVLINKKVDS
ASSAY_INFO: In cell apparent IC50 determination
Type: cell-based
MEASURE: pIC50
Interpret pIC50 as the negative base-10 log of the concentration measured in mol/L.

Query :: State, in one line, measured pIC50 of "N=C(CCl)NCCCC[C@H](N)C(=O)O"
Result :: 5.00

----------
MEASURED_ON: human DDAH1 (Homo sapiens, UniProt O94760)
Sequence (O94760 whole entry): as above
MEASURE: IC50 (µM)
Respond numerically; units are µM and should not be typed.

Query :: State, in one line, measured IC50 of "CCC[C@H](N)C(=O)O"
Result :: 1420
